TEST_SYSTEM: EPHB2 (UniProt P29323)
Sequence (P29323 whole entry, looked up): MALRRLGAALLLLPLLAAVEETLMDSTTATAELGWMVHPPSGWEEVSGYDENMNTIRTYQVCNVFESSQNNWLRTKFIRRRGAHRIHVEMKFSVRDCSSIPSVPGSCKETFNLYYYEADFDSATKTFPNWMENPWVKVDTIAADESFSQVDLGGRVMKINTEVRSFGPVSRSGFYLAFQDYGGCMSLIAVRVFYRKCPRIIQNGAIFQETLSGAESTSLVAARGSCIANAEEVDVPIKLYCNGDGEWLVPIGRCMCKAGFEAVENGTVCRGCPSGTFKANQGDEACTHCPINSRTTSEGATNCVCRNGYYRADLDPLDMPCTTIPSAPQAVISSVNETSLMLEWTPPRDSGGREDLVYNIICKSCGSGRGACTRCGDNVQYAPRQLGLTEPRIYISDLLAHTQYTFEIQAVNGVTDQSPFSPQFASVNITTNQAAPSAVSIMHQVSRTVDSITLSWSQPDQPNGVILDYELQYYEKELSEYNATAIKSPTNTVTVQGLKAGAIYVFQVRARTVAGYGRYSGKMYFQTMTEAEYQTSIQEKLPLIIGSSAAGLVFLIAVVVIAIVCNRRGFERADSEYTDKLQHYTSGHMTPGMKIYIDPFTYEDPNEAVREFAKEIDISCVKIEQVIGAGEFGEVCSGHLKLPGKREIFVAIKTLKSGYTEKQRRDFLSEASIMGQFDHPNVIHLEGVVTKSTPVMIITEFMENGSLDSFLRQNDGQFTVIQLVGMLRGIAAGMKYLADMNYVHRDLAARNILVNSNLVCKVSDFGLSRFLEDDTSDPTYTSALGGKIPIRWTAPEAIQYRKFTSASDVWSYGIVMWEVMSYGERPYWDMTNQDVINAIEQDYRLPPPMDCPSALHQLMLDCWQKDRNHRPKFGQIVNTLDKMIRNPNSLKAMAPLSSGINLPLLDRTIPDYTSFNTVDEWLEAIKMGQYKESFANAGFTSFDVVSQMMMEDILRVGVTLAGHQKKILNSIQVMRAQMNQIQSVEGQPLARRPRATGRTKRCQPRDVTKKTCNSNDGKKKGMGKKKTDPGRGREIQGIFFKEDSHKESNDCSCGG
MEASUREMENT_PROTOCOL: phosphorylation enrichment, bacterial display (enrichment ratio); higher = better substrate or ligand; peptides without Tyr show the background;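 further: 11-residue human phosphosite peptides and single-mutation variants displayed on the E. coli surface, counted by deep sequencing, each peptide's frequency after selection divided by its frequency in the unselected input library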;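 further: frequency after pTyr selection over input frequency; kinase dosed for 20-30% of maximal phosphorylation in three min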
Consider the following sequences and their measured phosphorylation enrichment readings.
Write no unit; give the number alone.

In: I am curious: what phosphorylation enrichment value has been reported for NSRFTCKLEVK [USH2A_Y3747_Y3747C_YF] ?
Out: 0.618

In: I am curious: what phosphorylation enrichment value has been reported for SRPTQYSSFSC [SPEM2_Y104] ?
Out: 0.511

###

Test system: AncSZ
MEASUREMENT_PROTOCOL: phosphorylation enrichment, bacterial display (enrichment ratio); higher = better substrate or ligand; peptides without Tyr show the background
phosphorylation enrichment vs 0.9: at or above is satisfied, below is not satisfied.

The following sequences have reported results that may help.
In: Is it the case that WPLKWYAPECI [ZAP70_Y506] has phosphorylation enrichment reaching or exceeding 0.9?
Out: satisfied

In: Is it the case that MEIHAYRKLSE [LMNA_Y376_L380S] has phosphorylation enrichment reaching or exceeding 0.9?
Out: not satisfied

In: Is it the case that FADGVYLALEE [DUOX2_Y70_Q71L_YF] has phosphorylation enrichment reaching or exceeding 0.9?
Out: satisfied

From here, focus on the item given below.
In: Is it the case that VLRQVYVDFEG [KMT2B_Y1707_R1705Q] has phosphorylation enrichment reaching or exceeding 0.9?
Out: satisfied
